Below: a set of entries, each annotated with reported vapor or sublimation pressure.
- cond: 570 K; Liquid

| query_smiles | vapor or sublimation pressure / kPa |
| --- | --- |
| CCCCCCCCCCCCCCCCCCCCCCCCCCCCCCCCC | 0.767 |
| CCCCCCCCCCCCCCCCCCCCCCCCCCCCCCCCCC | 0.575 |
| CCCCCCCCCCCCCCCCCCCCCCCCCCCCCCCCCCCC | 0.336 |
| CCCCCCCCCCCCCCCCCCCCCCCCCCCCCCC | 1.35 |
| CCCCCCCCCCCCCCCCCCCCCCCCCCCCCCCC | 1.02 |
| CCCCCCCCCCCCCCCCCCCCCCCCCCCCCCCCCCCCC | 0.25 |
| CCCCCCCCCCCCCCCCCCCCCCCCCCCCCCCCCCC | 0.436 |
| CCCCCCCCCCCCCCCCCCCCCCCCCCCCCCCCCCCCCC | 0.191 |

Source of measurements: the NIST ThermoML archive (doi:10.1021/je030236t)
